Test system: IL-1β production in PMA-differentiated THP-1 cells
Experiment summary: Measurement of IL-1β production in PMA-differentiated THP-1 cells (ELISA, 4 hours)
Type: cell-based, human
Condition context: human IL-1β production, assayed using one or more of the described procedures, read-out: NLRP3 hIL1B IC50
Assay endpoint: pIC50
Interpret pIC50 as the negative base-10 log of the concentration measured in mol/L.

- Nc1cc(NC2CCNC2)c2ccc(-c3ccn[nH]3)cc2n1 (stereo in doubt) [Compound 321]: 4.94

Q: Supply recorded pIC50 for Nc1cc(N[C@H]2CCCC[C@H]2O)c2ccc(-c3ccn[nH]3)cc2n1 [Compound 250] here.
Ans: 5.76

Q: Supply recorded pIC50 for Nc1cc(N[C@H]2CCCC[C@H]2O)c2ccc(-c3ccn[nH]3)cc2n1 (racemic) [Compound 157] here.
Ans: 6.14

Q: Supply recorded pIC50 for Nc1cc(N[C@@H]2CCNC2)c2ccc(-c3ccn[nH]3)cc2n1 [Compound 323] here.
Ans: 5.24

###

Readings of EC50 for the listed compounds
System name: UniProtKB Q9NYK1
Sequence (Q9NYK1 27-1049): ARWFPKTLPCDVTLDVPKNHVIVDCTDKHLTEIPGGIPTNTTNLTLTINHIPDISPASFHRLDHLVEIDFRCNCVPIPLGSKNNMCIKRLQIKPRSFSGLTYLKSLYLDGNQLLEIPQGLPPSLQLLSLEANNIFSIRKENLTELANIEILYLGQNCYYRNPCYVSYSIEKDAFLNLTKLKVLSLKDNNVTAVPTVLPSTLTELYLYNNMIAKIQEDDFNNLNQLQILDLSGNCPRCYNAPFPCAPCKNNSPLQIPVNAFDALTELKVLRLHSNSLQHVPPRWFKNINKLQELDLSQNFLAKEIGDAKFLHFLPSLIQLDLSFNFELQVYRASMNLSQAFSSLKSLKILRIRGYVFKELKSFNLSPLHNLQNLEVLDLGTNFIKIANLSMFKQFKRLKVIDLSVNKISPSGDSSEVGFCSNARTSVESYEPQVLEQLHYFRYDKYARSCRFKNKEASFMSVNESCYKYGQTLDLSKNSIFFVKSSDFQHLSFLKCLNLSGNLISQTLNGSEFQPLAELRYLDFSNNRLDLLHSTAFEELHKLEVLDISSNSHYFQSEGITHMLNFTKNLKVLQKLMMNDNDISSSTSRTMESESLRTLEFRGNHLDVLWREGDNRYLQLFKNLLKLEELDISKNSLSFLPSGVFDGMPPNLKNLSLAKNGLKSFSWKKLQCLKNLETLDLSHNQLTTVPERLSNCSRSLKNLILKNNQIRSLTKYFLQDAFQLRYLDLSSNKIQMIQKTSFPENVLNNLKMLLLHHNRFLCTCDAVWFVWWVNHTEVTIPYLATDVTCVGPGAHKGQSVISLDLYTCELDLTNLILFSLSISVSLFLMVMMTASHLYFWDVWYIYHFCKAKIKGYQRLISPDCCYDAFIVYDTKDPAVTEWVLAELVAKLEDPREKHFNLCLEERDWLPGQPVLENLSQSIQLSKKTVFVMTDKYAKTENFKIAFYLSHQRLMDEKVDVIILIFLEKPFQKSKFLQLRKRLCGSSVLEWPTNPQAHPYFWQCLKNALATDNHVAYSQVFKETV
Experiment summary: In vitro human TLR7 binding reporter assay (HEK-Blue, NF-kB/AP1-inducible SEAP)
Condition context: HEK-Blue human TLR7 SEAP reporter cells; activity range classes; read-out: TLR7 Agonist EC50

Q: Supply recorded EC50 for Nc1cc(NCc2ncccn2)c2ccc(-c3ccn[nH]3)cc2n1 here.
Ans: > 100 µM

Q: Supply recorded EC50 for Nc1cc(NCC(F)(F)c2ccccn2)c2ccc(-n3cccn3)cc2n1 here.
Ans: > 100 µM

###

System name: UniProtKB Q9NYK1
Experiment summary: In vitro human TLR7 binding reporter assay (HEK-Blue, NF-kB/AP1-inducible SEAP)
Condition context: HEK-Blue human TLR7 SEAP reporter cells; activity range classes; read-out: TLR7 Agonist EC50
pEC50: −log10 of the molar value.
Assay endpoint: pEC50

# count of solved cases: 6
- COC(=O)NCCNc1cc(N)nc2cc(-c3ccn[nH]3)ccc12: < 4.00
- Nc1nc2cc(-c3ccn[nH]3)ccc2cc1-c1ccc2[nH]ncc2c1: < 4.00
- N#CCCCNc1cc(N)nc2cc(-c3ccn[nH]3)ccc12: < 4.00
- Nc1cc(NCC2CNC2)c2ccc(-c3ccn[nH]3)cc2n1: < 4.00
- Nc1cc(OCCc2ccsc2)c2ccc(-c3ccsc3)cc2n1: < 4.00
- Nc1cc(NCC(F)(F)c2ccccn2)c2ccc(-c3ccn[nH]3)cc2n1: < 4.00

Q: Supply recorded pEC50 for Nc1cc(NCC2(O)CC2)c2ccc(-c3ccn[nH]3)cc2n1 here.
Ans: < 4.00
